What follows is a record of muscarinic M3 receptor-positive allosteric modulator activity, 1 μM (-fold shift) for human muscarinic M3 receptor (Homo sapiens).

Below: 5 compounds and their reported muscarinic M3 receptor-positive allosteric modulator activity, 1 μM (-fold shift).
compound: COc1c(F)cc(-c2nc(NC(=O)c3cnc(N4CCN(CCC(=O)O)CC4)cn3)sc2CN2CCC[C@H]2C)cc1C(F)(F)F
result: 31 -fold shift
--
compound: C[C@@H]1CCCN1Cc1sc(NC(=O)c2cnc(N3CCN(CCC(=O)O)CC3)cn2)nc1-c1ccc(F)c(C(F)(F)F)c1
result: 33 -fold shift
--
compound: C[C@@H]1CCCN1Cc1sc(NC(=O)c2cnc(N3CCN(CCC(=O)O)C[C@H]3C)cn2)nc1-c1cc(F)cc(C(F)(F)F)c1
result: 28 -fold shift
--
compound: Cc1cc(OC(F)(F)F)cc(-c2nc(NC(=O)c3cnc(N4CCN(CCC(=O)O)CC4)cn3)sc2CN2CCC[C@H]2C)c1
result: 29 -fold shift
--
compound: CCN(CC)Cc1sc(NC(=O)c2cnc(N3CCN(CCC(=O)O)CC3)cn2)nc1-c1cc(F)cc(C(F)(F)F)c1
result: 30 -fold shift

Consider the following items and state reported muscarinic M3 receptor-positive allosteric modulator activity, 1 μM (-fold shift) for each.
1. Cc1cc(-c2nc(NC(=O)c3cnc(N4CCN(CC(=O)O)CC4)cn3)sc2CN2CCC[C@H]2C)cc(C(F)(F)F)c1
2. C[C@H]1CN(c2cnc(C(=O)Nc3nc(-c4cc(Cl)cs4)c(CN(C)CC4CC4)s3)cn2)CCN1CCC(=O)O

Output:
["28 -fold shift", "73 -fold shift"]

The following compounds each have a reported value; give each one's muscarinic M3 receptor-positive allosteric modulator activity, 1 μM (-fold shift).
1. C[C@@H]1CCCN1Cc1sc(NC(=O)c2cnc(N3CCN(CCC(=O)O)C[C@H]3C)cn2)nc1-c1cc(Br)cs1
2. C[C@@H]1CCCN1Cc1sc(NC(=O)c2cnc(N3CCN(CCC(=O)O)CC3)cn2)nc1-c1cc(C2CC2)cc(C(F)(F)F)c1
3. CC[C@@H]1CCCN1Cc1sc(NC(=O)c2cnc(N3CCN(CCC(=O)O)C[C@H]3C)cn2)nc1-c1ccc(OC(C)C)c(C(F)(F)F)c1
4. C[C@@H]1CCCN1Cc1sc(NC(=O)c2cnc(N3CCN(CCC(=O)O)CC3)cn2)nc1-c1cc(Cl)cs1 [Example 50]
5. C[C@@H]1CCCN1Cc1sc(NC(=O)c2cnc(N3CCN(CCC(=O)O)[C@@H](C)C3)cn2)nc1-c1cc(Cl)cs1

Output:
["64 -fold shift", "40 -fold shift", "25 -fold shift", "108 -fold shift", "52 -fold shift"]

Input: Tell me the measured muscarinic M3 receptor-positive allosteric modulator activity, 1 μM (-fold shift) of C[C@@H]1CCCN1Cc1sc(NC(=O)c2cnc(N3CCN(CCC(=O)O)[C@@H](C)C3)cn2)nc1-c1cc(C(F)(F)F)cs1 , please.
Output: 91 -fold shift

====

Field: Increase rate (% of pre) of intravesical pressure. Provide a value for each of the molecules that follow.
System: pelvic nerve stimulation-induced elevation of intravesical pressure
assay remarks: Test Example 4: effect on pelvic nerve stimulation-induced elevation of intravesical pressure in anesthetized rats
Assay type: in vivo, rat
experimental setup: 3 mg/kg intravenous; maximum effect within one hour; anesthetized SD female rats; pre-treatment = 100%

Below are worked cases with known answers.
molecule: COc1c(F)cc(-c2nc(NC(=O)c3cnc(N4CCN(CCC(=O)O)CC4)cn3)sc2CN2CCC[C@H]2C)cc1C(F)(F)F [Example 72]
tested target: pelvic nerve stimulation-induced elevation of intravesical pressure
result: 155 % of pre

molecule: C[C@@H]1CCCN1Cc1sc(NC(=O)c2cnc(N3CCN(CCC(=O)O)CC3)cn2)nc1-c1ccc(F)c(C(F)(F)F)c1 [Example 60]
tested target: pelvic nerve stimulation-induced elevation of intravesical pressure
result: 130 % of pre

molecule: C[C@@H]1CC[C@@H](C)N1Cc1sc(NC(=O)c2cnc(N3CCN(CCC(=O)O)CC3)cn2)nc1-c1cc(F)cc(C(F)(F)F)c1 [Example 119]
tested target: pelvic nerve stimulation-induced elevation of intravesical pressure
result: 173 % of pre

molecule: C[C@@H]1CCCN1Cc1sc(NC(=O)c2cnc(N3CCN(CCC(=O)O)CC3)cn2)nc1-c1cc(Cl)cs1 [Example 50]
tested target: pelvic nerve stimulation-induced elevation of intravesical pressure
result: 207 % of pre

molecule: C[C@@H]1CCCN1Cc1sc(NC(=O)c2cnc(N3CCN(CCC(=O)O)[C@@H](C)C3)cn2)nc1-c1cc(Cl)cs1 [Example 142]
tested target: pelvic nerve stimulation-induced elevation of intravesical pressure
result: 199 % of pre

Input: What does the record list as Increase rate (% of pre) of intravesical pressure for CC(C(=O)O)N1CCN(c2cnc(C(=O)Nc3nc(-c4cc(F)cc(C(F)(F)F)c4)c(CN4CCC[C@H]4C)s3)cn2)CC1 (stereo partly drawn) [Example 64] ?
Output: 135 % of pre

====

Parameter 'readout' = muscarinic M3 receptor-positive allosteric modulator activity, 1 μM (-fold shift); parameter 'system' = human muscarinic M3 receptor (Homo sapiens).
Sequence (P20309 whole entry): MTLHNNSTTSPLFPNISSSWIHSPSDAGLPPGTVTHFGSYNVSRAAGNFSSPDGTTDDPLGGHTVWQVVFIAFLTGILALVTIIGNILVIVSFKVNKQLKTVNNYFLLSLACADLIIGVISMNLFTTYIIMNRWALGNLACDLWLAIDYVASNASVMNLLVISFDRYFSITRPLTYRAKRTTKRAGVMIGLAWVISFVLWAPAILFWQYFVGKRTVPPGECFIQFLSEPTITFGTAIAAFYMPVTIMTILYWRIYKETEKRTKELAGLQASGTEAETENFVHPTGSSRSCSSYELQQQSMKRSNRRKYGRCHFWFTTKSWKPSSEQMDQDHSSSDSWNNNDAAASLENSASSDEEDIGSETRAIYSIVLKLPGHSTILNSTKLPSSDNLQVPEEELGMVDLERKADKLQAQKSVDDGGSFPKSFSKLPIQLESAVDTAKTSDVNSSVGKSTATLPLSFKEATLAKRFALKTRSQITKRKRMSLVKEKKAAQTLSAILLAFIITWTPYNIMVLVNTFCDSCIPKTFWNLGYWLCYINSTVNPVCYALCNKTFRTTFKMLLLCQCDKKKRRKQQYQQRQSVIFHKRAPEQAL

Here are 4 compounds. What values of muscarinic M3 receptor-positive allosteric modulator activity, 1 μM (-fold shift) were reported for them?
1. COc1ccc(-c2nc(NC(=O)c3cnc(N4CCN(CCC(=O)O)[C@@H](C)C4)cn3)sc2CN2CCC[C@H]2C)cc1C(F)(F)F
2. CC[C@@H]1CCCN1Cc1sc(NC(=O)c2cnc(N3CCN(CCC(=O)O)CC3)cn2)nc1-c1ccc(OC)c(C(F)(F)F)c1
3. C[C@@H]1CCCN1Cc1sc(NC(=O)c2cnc(N3CCN(CCC(=O)O)CC3)cn2)nc1-c1cc(Cl)cs1 [Example 82]
4. CCOc1ccc(-c2nc(NC(=O)c3cnc(N4CCN(CCC(=O)O)CC4)cn3)sc2CN2CCC[C@H]2C)cc1C(F)(F)F

Output:
1. 21 -fold shift
2. 39 -fold shift
3. 11 -fold shift
4. 36 -fold shift

====

tested target: human muscarinic M3 receptor (Homo sapiens)
measured property: muscarinic M3 receptor-positive allosteric modulator activity, 1 μM (-fold shift)

Record excerpt, results attached:
compound: C[C@@H]1CCCN1Cc1sc(NC(=O)c2cnc(N3CCN(CCC(=O)O)CC3)cn2)nc1-c1cc2ccccc2s1 [Example 132]
result: 15 -fold shift
--
compound: COc1ncc(-c2nc(NC(=O)c3cnc(N4CCN(CCC(=O)O)CC4)cn3)sc2CN2CCC[C@H]2C)cc1C(F)(F)F [Example 33]
result: 40 -fold shift
--
compound: CC[C@@H]1CCCN1Cc1sc(NC(=O)c2cnc(N3CCN(CCC(=O)O)CC3)cn2)nc1-c1cccc(C(F)(F)F)c1 [Example 65]
result: 24 -fold shift
--
compound: C[C@@H]1CCCN1Cc1sc(NC(=O)c2cnc(N3CCN(CC(=O)O)C[C@H]3C)cn2)nc1-c1cc(F)cc(C(F)(F)F)c1 [Example 141]
result: 45 -fold shift
--
compound: C[C@@H]1CCCN1Cc1sc(NC(=O)c2cnc(N3CCN(CCC(=O)O)CC3)cn2)nc1-c1cc(Br)cs1 [Example 97]
result: 55 -fold shift

Next compound, muscarinic M3 receptor-positive allosteric modulator activity, 1 μM (-fold shift) to be filled in.
Input: Request: muscarinic M3 receptor-positive allosteric modulator activity, 1 μM (-fold shift), test system human muscarinic M3 receptor (Homo sapiens), entry CC[C@@H]1CCCN1Cc1sc(NC(=O)c2cnc(N3CCN(CC(=O)O)CC3)cn2)nc1-c1ccc(OC)c(C(F)(F)F)c1 [Example 41]
Output: 43 -fold shift

====

Test system: pelvic nerve stimulation-induced elevation of intravesical pressure
assay remarks: Test Example 4: effect on pelvic nerve stimulation-induced elevation of intravesical pressure in anesthetized rats
Assay type: in vivo, rat
experimental setup: 3 mg/kg intravenous; maximum effect within one hour; anesthetized SD female rats; pre-treatment = 100%
measured property: Increase rate (% of pre) of intravesical pressure

Reference set, count: 4
compound: C[C@@H]1CCCN1Cc1sc(NC(=O)c2cnc(N3CCN(CCC(=O)O)CC3)cn2)nc1-c1cc(F)cc(C(F)(F)F)c1
tested target: pelvic nerve stimulation-induced elevation of intravesical pressure
result: 172 % of pre

compound: Cc1cc(OC(F)(F)F)cc(-c2nc(NC(=O)c3cnc(N4CCN(C(C)C(=O)O)CC4)cn3)sc2CN2CCC[C@H]2C)c1 (some centres unmarked)
tested target: pelvic nerve stimulation-induced elevation of intravesical pressure
result: 121 % of pre

compound: CCN(CC)Cc1sc(NC(=O)c2cnc(N3CCN(CCC(=O)O)CC3)cn2)nc1-c1cc(F)cc(C(F)(F)F)c1
tested target: pelvic nerve stimulation-induced elevation of intravesical pressure
result: 180 % of pre

compound: COc1cc(-c2nc(NC(=O)c3cnc(N4CCN(CCC(=O)O)CC4)cn3)sc2CN2CCC[C@H]2C)cc(C(F)(F)F)c1
tested target: pelvic nerve stimulation-induced elevation of intravesical pressure
result: 129 % of pre

Input: What does the record list as Increase rate (% of pre) of intravesical pressure for COc1c(Cl)cc(-c2nc(NC(=O)c3cnc(N4CCN(CCC(=O)O)CC4)cn3)sc2CN2CCC[C@H]2C)cc1Cl ?
Output: 125 % of pre
